These measurements were taken from PubChem BioAssay.

test: growth effects on S. cerevisiae YJM789 – YJM789 clinical isolate, OD600, 24 h, basal, primary screen (AID 1089);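 also: growth of clinical yeast isolate S. cerevisiae YJM 789 seeded 1000 cells per well; test concentration not given here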
conditions: higher = more signal, called active from +8 up or from −8 down
property: z-score
Give bare numbers.

molecule	reported
CO[C@H]1O[C@H](CO)[C@@H](OC(=O)CCc2ccccc2)[C@@H]2OC(=O)[C@@H](Cc3ccccc3)C/C=C/C[C@H](Cc3ccccc3)C(=O)O[C@@H]12	-0.0668
CC(c1ccccc1)C(O)C1C=CC2C(=O)N(C)C(=O)C2N1Nc1ccccc1 (centres undefined)	0.188
COC(=O)[C@@]1(Cc2ccc(F)cc2)[C@H]2c3cc(C(=O)N4CCCC4)n(CCc4c[nH]c5ccccc45)c3C[C@H]2CN1C(=O)c1ccccc1	0.519

API: the following record is the query input.
[in] May I ask what z-score has been recorded for CN(C)C(=O)[C@@]1(Cc2ccccc2)N=C(c2ccc(OCCCO)cc2)O[C@H]1c1ccccc1 ?
[out] -0.826
